Values were extracted from patent US12150995B2.

As shown below, each of these compounds has a reported DC50 value.
Molecular target: IRAK4 (Homo sapiens)
Construct: endogenous in cells; host or cells: OCI-LY10
Sequence (Q9NWZ3 1-460): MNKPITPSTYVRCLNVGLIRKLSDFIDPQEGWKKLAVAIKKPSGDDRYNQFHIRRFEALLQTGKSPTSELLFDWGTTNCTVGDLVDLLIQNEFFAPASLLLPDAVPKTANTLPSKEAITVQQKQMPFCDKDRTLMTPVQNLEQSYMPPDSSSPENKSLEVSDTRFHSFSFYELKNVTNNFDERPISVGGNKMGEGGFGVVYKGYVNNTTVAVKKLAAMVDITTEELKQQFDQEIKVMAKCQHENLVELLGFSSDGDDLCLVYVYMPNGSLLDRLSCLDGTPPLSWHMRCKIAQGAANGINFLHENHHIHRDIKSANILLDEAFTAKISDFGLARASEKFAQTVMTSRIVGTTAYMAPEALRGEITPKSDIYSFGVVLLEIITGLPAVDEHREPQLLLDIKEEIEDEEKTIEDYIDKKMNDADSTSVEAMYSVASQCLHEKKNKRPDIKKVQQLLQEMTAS
Experiment: IRAK4 MSD Degradation in OCI-LY10
Type: cell-based
Conditions: OCI-LY10 cells, Meso Scale Discovery, incubated 4 to 24 hours

Look over these answered cases.
[
  {
    "compound": "COc1cc2nc([C@H]3CC[C@H](CN4CCC(c5cccc6c(N7CCC(=O)NC7=O)cncc56)CC4)CC3)sc2cc1NC(=O)c1cccc(C(F)(F)F)n1",
    "DC50": "10 to 50 nM"
  },
  {
    "compound": "Cc1ccc2c(c1C1CCN(C[C@H]3CC[C@H](n4cc5cc(NC(=O)c6cccc(C(F)(F)F)n6)ncc5n4)CC3)CC1)n(C)c(=O)n2C1CCC(=O)NC1=O (some centres unmarked)",
    "DC50": "< 10 nM"
  },
  {
    "compound": "COc1cc2nn([C@H]3CC[C@H](CN(C)C4CCN(c5cccc6c5n(C)c(=O)n6C5CCC(=O)NC5=O)CC4)CC3)cc2cc1NC(=O)c1cncc(Cl)c1 (some centres unmarked)",
    "DC50": "< 10 nM"
  },
  {
    "compound": "Cn1c(=O)n(C2CCC(=O)NC2=O)c2cccc(N3CC4CC(C3)N4C[C@H]3CC[C@H](n4cc5cc(NC(=O)c6cccc(C(F)(F)F)n6)ccc5n4)CC3)c21 (single isomer, unassigned)",
    "DC50": "50 to 100 nM"
  }
]

# context switch: different compound, same DC50
Fill in: DC50 of COc1ccc2c(c1C1CCN(C[C@H]3C[C@H](n4cc5cc(NC(=O)c6cccc(C(F)(F)F)n6)ncc5n4)C3)CC1)n(C)c(=O)n2C1CCC(=O)NC1=O (some centres unmarked) is ___
50 to 100 nM
